biological target: CDK9/cyclin K (Homo sapiens, UniProt P50750); construct: purchased Invitrogen (ThermoFisher) PV4335; experiment: TR-FRET Lanthascreen Eu Kinase Binding assay; settings: in %
Sequence (P50750 whole entry): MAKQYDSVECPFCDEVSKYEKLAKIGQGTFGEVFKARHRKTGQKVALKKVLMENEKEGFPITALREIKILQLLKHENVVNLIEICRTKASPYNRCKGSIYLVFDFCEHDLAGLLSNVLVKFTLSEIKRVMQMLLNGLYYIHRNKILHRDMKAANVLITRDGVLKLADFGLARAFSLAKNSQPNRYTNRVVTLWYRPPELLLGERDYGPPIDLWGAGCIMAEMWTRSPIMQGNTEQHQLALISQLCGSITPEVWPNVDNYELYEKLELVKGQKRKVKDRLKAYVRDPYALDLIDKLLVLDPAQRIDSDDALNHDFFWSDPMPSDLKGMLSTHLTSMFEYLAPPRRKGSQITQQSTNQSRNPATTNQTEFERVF
Sequence (O75909 whole entry partner): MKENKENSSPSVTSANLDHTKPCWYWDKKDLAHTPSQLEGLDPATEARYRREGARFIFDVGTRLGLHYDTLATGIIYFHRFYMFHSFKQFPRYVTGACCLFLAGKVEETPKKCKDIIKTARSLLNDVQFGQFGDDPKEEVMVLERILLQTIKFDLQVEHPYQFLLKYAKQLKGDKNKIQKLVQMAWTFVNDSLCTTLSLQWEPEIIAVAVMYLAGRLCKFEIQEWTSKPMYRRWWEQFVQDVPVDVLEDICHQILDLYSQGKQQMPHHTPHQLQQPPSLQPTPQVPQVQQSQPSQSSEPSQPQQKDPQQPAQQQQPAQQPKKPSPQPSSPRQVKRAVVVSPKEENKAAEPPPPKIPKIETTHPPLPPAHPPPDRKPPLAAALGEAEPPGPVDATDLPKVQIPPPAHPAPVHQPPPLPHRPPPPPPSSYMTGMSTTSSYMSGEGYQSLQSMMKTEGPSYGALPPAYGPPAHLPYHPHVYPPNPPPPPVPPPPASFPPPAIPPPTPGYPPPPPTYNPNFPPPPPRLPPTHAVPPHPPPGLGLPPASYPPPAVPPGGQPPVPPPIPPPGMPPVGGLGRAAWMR
Assay endpoint: Max Resp

Molecule: Cc1n[nH]c2ccc(-c3cncc(OC[C@@H](N)Cc4ccccc4)c3)cc12
Assay endpoint: Max Resp
Reading: -98.7

Molecule: CC[C@@](C)(Nc1ccnc(-c2c[nH]c3ncccc23)n1)C(=O)NCC(F)(F)F
Assay endpoint: Max Resp
Reading: -97.1

Molecule: Cc1cc(CN2CCN(c3c(Br)cnc4[nH]c(-c5ccc(N6CCN(C)CC6)cc5)nc34)CC2)no1
Assay endpoint: Max Resp
Reading: -79.3

Molecule: COc1ccc(-c2oc3ncnc(N)c3c2-c2ccc(NC(=O)Nc3cc(C(F)(F)F)ccc3F)cc2)cc1 [GW768505A]
Assay endpoint: Max Resp
Reading: -78.2

Molecule: NC(=O)c1ccccc1Nc1ccnc(Nc2cccc(O)c2)n1
Assay endpoint: Max Resp
Reading: -97.2
